- Tgt: Left-right determination factor 2 (Homo sapiens)
- Test: LEFTY2 binders on small-molecule microarrays, primary screen, biochemical, small-molecule microarray, 635 nm fluorescence scan (AID 1110)
- Run Conditions: LEFTY2 binding, higher = more signal
Please enter met where composite z-score is greater than or equal to 0.3, and not met where it is lower.

C=C(C(=O)CC[C@@H](OC(=O)c1cccnc1)c1ccccc1OCCO)C(C)C : met

Problem: Given the entry CN1C(=O)C2C=CC(C(O)c3ccccc3)N(N(c3ccccc3)c3ccccc3)C2C1=O (centres undefined) , answer whether its composite z-score meets or surpasses 0.3.
Solution: met

Problem: Given the entry C=CCOC(=O)[C@H]1[C@@H]2C(=O)O[C@@H](c3ccccc3)[C@@H](c3ccccc3)N2[C@@H](c2ccc(OCCOC(=O)[C@H]3C[C@H]4C(=O)N[C@@H](CCCCNC(C)=O)C(=O)N4[C@H]3c3ccc(O)cc3)cc2)[C@]12C(=O)Nc1ccc(I)cc12 , answer whether its composite z-score meets or surpasses 0.3.
Solution: met

Problem: Given the entry C[N+](C)(C)CCCC[C@@H]1NC(=O)[C@H]2C[C@@H](C(=O)NCCCCCCNC(=O)CS)[C@@H](c3cccc(OCCO)c3)N2C1=O , answer whether its composite z-score meets or surpasses 0.3.
Solution: not met

###

# key: entry, value: z-score
- Tgt: NADPH oxidase 2 (Homo sapiens)
- Test: NOX2-dependent H2O2 signal modulators, primary screen, NOX inhibitor project, cell-based, HEK293-NOX2, PMA-stimulated, Amplex Red fluorescence (AID 1159); note: test concentration not given here
- Run Conditions: 45 min, higher = more signal, called active from +8 up or from −8 down
Could you respond with only the numeric value?

Observe how each entry below is paired with its result.
C=C(COC)/C(=C/C[C@H](OC(C)=O)c1ccc(CO)o1)c1cc(C(=O)OC)ccc1OC : -1.85
C=CCNC(=O)[C@@H]1[C@H]2C(=O)O[C@H](c3ccccc3)[C@H](c3ccccc3)N2[C@H](c2ccc(OCCO)cc2)[C@@]12C(=O)Nc1ccc(C#CCC(C(=O)OC)C(=O)OC)cc12 : 2.32
C=CCOC(=O)[C@@H]1[C@H]2C(=O)O[C@H](c3ccccc3)[C@H](c3ccccc3)N2[C@H](c2ccc(OCCOC(=O)[C@H]3C[C@H]4C(=O)N5CCC[C@H]5C(=O)N4[C@H]3c3ccc(O)cc3)cc2)[C@@]12C(=O)Nc1ccc(I)cc12 : 0.986
O=C1O[C@H](c2ccccc2)[C@H](c2ccccc2)N2[C@H]1[C@@H](C(=O)N1CCCCCCC1)[C@]1(C(=O)Nc3ccc(C#CC4=CCCCC4)cc31)[C@H]2c1ccc(OCCO)cc1 : -0.708

Problem: Data request, read-out z-score, for COc1ccc([Si](C)(C)[C@H]2[C@H](CC(=O)N3Cc4ccccc4C[C@H]3CO)O[C@@]3(C(=O)N(Cc4cccc(N5CCC5=O)c4)c4ccccc43)[C@@H]2C)cc1
Solution: -1.15

Problem: Data request, read-out z-score, for [N-]=[N+]=NCc1ccccc1C[C@]1(C(=O)N2CCCCC2)N=C(c2ccc(OCCCO)cc2)O[C@H]1c1ccccc1N=[N+]=[N-]
Solution: -2.45

###

- Test: binders of probe aFST on microarray, primary screen, stem cell growth factor project, biochemical, small-molecule microarray, fluorescence 635/667 (AID 1086);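 note: score merges 667 nm fluorescence with signal-to-noise of each printed compound spot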
- Run Conditions: higher = more signal
Observable: composite z-score
Could you respond with only the numeric value?

Observe how each entry below is paired with its result.
CC1CC/C=C\[C@H]2OC34C=CCN(C(C)(C)C)C(=O)[C@H]3N(C(C)CO)C(=O)[C@@H]4C2C(=O)O1 (some centres not stated) : -0.39
[N-]=[N+]=Nc1ccccc1[C@H]1OC(c2ccc(OCCCO)cc2)=N[C@@]1(CCS(=O)(=O)c1ccccc1)C(N)=O : 1.04
COc1cc(Br)cc(C(O)C2C=CC3C(=O)N(C)C(=O)C3N2N2CCCCC2)c1OC (configuration not stated) : 0.347
O=C1O[C@@H](c2ccccc2)[C@@H](c2ccccc2)N2[C@@H](c3ccccc3OCCO)[C@]3(C(=O)Nc4ccc(C#CC5=CCCCC5)cc43)[C@@H](C(=O)N3CCCCCCC3)[C@H]12 : 3.59
C=C[C@H](C)[C@@H](OC(=O)Nc1ccc(OC)cc1)c1ccc(O)c2ccccc12 : -0.344

Problem: Data request, read-out composite z-score, for COc1cc(NN2C(C(O)c3ccco3)C=CC3C(=O)N(c4ccccc4)C(=O)C32)cc(OC)c1OC (configuration not stated)
Solution: 0.162

Problem: Data request, read-out composite z-score, for O=C1N[C@@H](Cc2ccccc2)C(=O)N2[C@@H]1C[C@@H](C(=O)O)[C@H]2c1cccc(OCCO)c1
Solution: 0.166

###

# key: entry, value: z-score
- Test: E. coli acrAB mutant growth effects, primary screen, E. coli filamentation inducers, strain DRC39, OD650, 48 h (AID 1179);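 note: screen aims at cell division blockers that make cells filament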
- Run Conditions: E. coli DRC39 delta-acrAB growth, higher = more signal, called active from +8 up or from −8 down
Could you respond with only the numeric value?

Problem: Data request, read-out z-score, for CC(C)NC(=O)[C@@]1(c2ccc([N+](=O)[O-])cc2)CC(=O)N(C2CCCCC2)[C@@H]1c1ccc(CO)cc1I
Solution: 0.0026

Problem: Data request, read-out z-score, for CC(C)CNC(=O)[C@@]1(Cc2ccccc2I)c2ccccc2C(=O)N(C2CCCCC2)[C@H]1c1ccc(CO)cc1
Solution: -0.0397

Problem: Data request, read-out z-score, for C=CCNC(=O)[C@H]1[C@@H]2C(=O)O[C@@H](c3ccccc3)[C@@H](c3ccccc3)N2[C@@H](c2ccccc2OCCO)[C@]12C(=O)Nc1ccc(C#CCCO)cc12
Solution: -0.445

Problem: Data request, read-out z-score, for COc1ccc([Si](C)(C)[C@H]2[C@H](CC(=O)N3Cc4ccccc4C[C@H]3CO)O[C@@]3(C(=O)N(Cc4cccc(N5CCC5=O)c4)c4ccccc43)[C@@H]2C)cc1
Solution: 0.398

Problem: Data request, read-out z-score, for O=C(NCCN1CCOCC1)C1N=C(c2ccc(OCCCO)cc2)N(c2ccccc2)O1 (configuration not stated)
Solution: 0.116

Problem: Data request, read-out z-score, for C=C[C@H](OC)[C@@H](OC(=O)Nc1ccc(OC)cc1)c1ccc(O)c(F)c1
Solution: 0.98

Problem: Data request, read-out z-score, for O=C1c2ccccc2[C@](Cc2ccccc2I)(C(=O)NCCN2CCOCC2)[C@H](c2ccc(CO)cc2)N1Cc1ccccc1Cl
Solution: -0.108

###

- System: glycogen synthase kinase-3 (GSK3A per assay name; protocol says GSK3B)
- Test: GSK3 binders on small-molecule microarrays, primary screen, biochemical, small-molecule microarray, 635 nm fluorescence, GSK3A (AID 1103); note: the record names both GSK3A and GSK3B
- Run Conditions: small-molecule microarray binding, fluorescence 635 nm; higher = more signal
Please enter criterion met where composite z-score is greater than or equal to 1, and criterion not met where it is lower.

Problem: Given the entry CN(C)CCCCCCNC(=O)[C@@H]1C[C@@H]2C(=O)N[C@@H](Cc3ccccc3)C(=O)N2[C@@H]1c1ccc(O)cc1 , answer whether its composite z-score meets or surpasses 1.
Solution: criterion met

Problem: Given the entry C=C(C(=O)CC[C@@H](OC(=O)c1cccnc1)c1ccccc1OCCO)C(C)C , answer whether its composite z-score meets or surpasses 1.
Solution: criterion not met

Problem: Given the entry C=C(COC)/C(=C/C[C@H](OC(C)=O)c1ccc(CO)o1)c1cc(C(=O)OC)ccc1OC , answer whether its composite z-score meets or surpasses 1.
Solution: criterion not met

Problem: Given the entry C[N+](C)(C)CCCC[C@@H]1NC(=O)[C@H]2C[C@@H](C(=O)NCCCCCCNC(=O)CS)[C@@H](c3cccc(OCCO)c3)N2C1=O , answer whether its composite z-score meets or surpasses 1.
Solution: criterion not met

Problem: Given the entry COc1ccccc1CN1C(=O)c2ccccc2[C@@H](C(=O)NC2CC2)[C@@H]1c1ccc(CO)cc1 , answer whether its composite z-score meets or surpasses 1.
Solution: criterion met

Problem: Given the entry CN1C(=O)C2C=CC(C(O)c3ccco3)N(Nc3ccccc3)C2C1=O (stereo not given) , answer whether its composite z-score meets or surpasses 1.
Solution: criterion not met

Problem: Given the entry Cc1ccc(S[C@]2(C(=O)NCCCN(C)C)CC(=O)N(Cc3cc(C(F)(F)F)cc(C(F)(F)F)c3)[C@@H]2c2ccc(CO)cc2)cc1 , answer whether its composite z-score meets or surpasses 1.
Solution: criterion not met

Problem: Given the entry COc1ccc(C#Cc2ccc3c(c2)[C@]2(C(=O)N3)[C@H](c3ccccc3OCCO)N3[C@H](c4ccccc4)[C@H](c4ccccc4)OC(=O)[C@H]3[C@@H]2C(=O)Nc2nc3ccccc3s2)cc1 , answer whether its composite z-score meets or surpasses 1.
Solution: criterion met

Problem: Given the entry COc1cc(Br)cc(C(O)C2C=CC3C(=O)N(C)C(=O)C3N2N2CCCCC2)c1OC (stereo not given) , answer whether its composite z-score meets or surpasses 1.
Solution: criterion not met

Origin of the recorded values: PubChem BioAssay
